Experiment: NCI Yeast Anticancer Drug Screen. Data for the rad50 strain (AID 155);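 note: 0% = growth of vehicle-only cultures of the same strain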
Conditions: S. cerevisiae rad50 strain growth inhibition; at 50.0 µM; hits give high values
About 79,000 compounds went through this panel and 15% of them were active in at least one assay; those are over-represented in the sample as a whole.
Please respond with reported growth inhibition for every item in the list.
The answer is to be given in %; state only the numeric part.

[in] Entry COc1ccc(/C=C2\CCCC3=C2NC(=S)NC3c2ccc(OC)cc2)cc1 (configuration not stated) : reported growth inhibition = ?
[out] 24.8

[in] Entry O=C(O)C1CCCCN1/N=C/c1ccccc1 (configuration not stated) : reported growth inhibition = ?
[out] 15.8

[in] Entry N#CNC(=Nc1ccccc1)[N](C#N)[Sn]([c]1ccccc1)([c]1ccccc1)[c]1ccccc1 : reported growth inhibition = ?
[out] 98.7

[in] Entry CCOCCOC(=O)CCC1CCCCC1 : reported growth inhibition = ?
[out] 29.8

[in] Entry C=C(C)CBr : reported growth inhibition = ?
[out] -17.1

[in] Entry CNc1ncnc2[nH]cc([N+](=O)[O-])c12 : reported growth inhibition = ?
[out] 6.45

[in] Entry CC(C)(C)c1cc(C(=S)N2CCN(C(=S)c3cc(C(C)(C)C)c(O)c(C(C)(C)C)c3)CC2)cc(C(C)(C)C)c1O : reported growth inhibition = ?
[out] 4.05

[in] Entry CCCCCCCCCCCC(=O)NC(=S)Nc1ccc(C)c(C)c1 : reported growth inhibition = ?
[out] 8.65

[in] Entry NC(CSS(=O)(=O)O)=NCC1CC2CCC1C2 (configuration not stated) : reported growth inhibition = ?
[out] 3.25

[in] Entry CCCCCc1ccc(C)cc1OC(C)=O : reported growth inhibition = ?
[out] 14.1

[in] Entry CCC(CC)=NNS(=O)(=O)c1cccc2ccccc12 : reported growth inhibition = ?
[out] 10.7

[in] Entry O=C(Nc1ccc2c(c1)Cc1ccccc1-2)C(Cl)Cl : reported growth inhibition = ?
[out] 20.4

---

Test: NCI Yeast Anticancer Drug Screen. Data for the sgs1 mgt1 strain (AID 161);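 note: 0% = growth of cultures given vehicle only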
Conditions: S. cerevisiae sgs1 mgt1 strain, at 50.0 µM, hits give high values
The panel holds about 79,000 compounds, 15% with a hit somewhere; the sample as a whole holds those more often.
So basically: growth inhibition at 10% or higher? That is 1.0. Lower than 10%? That is 0.0.

[in] Textbook exercise: given the entry CC1(C(O)(c2ccccc2)c2ccccc2)CC1(c1ccccc1)c1ccccc1 (configuration not stated) , state whether its growth inhibition is greater than or equal to 10%.
[out] 0.0

[in] Textbook exercise: given the entry O=C[C@H](O)CO , state whether its growth inhibition is greater than or equal to 10%.
[out] 1.0

[in] Textbook exercise: given the entry CCOC1C=CCCC1 (configuration not stated) , state whether its growth inhibition is greater than or equal to 10%.
[out] 0.0

[in] Textbook exercise: given the entry CCOC(=O)/C(C)=C\C1C(C)=CC(=O)CC1(C)C (configuration not stated) , state whether its growth inhibition is greater than or equal to 10%.
[out] 0.0

[in] Textbook exercise: given the entry O=C(Nc1ccc(Cl)cc1C(=O)O)c1ccc([N+](=O)[O-])cc1 , state whether its growth inhibition is greater than or equal to 10%.
[out] 1.0

[in] Textbook exercise: given the entry CC(C)C(=O)Nc1ccc([N+](=O)[O-])cc1 , state whether its growth inhibition is greater than or equal to 10%.
[out] 1.0

[in] Textbook exercise: given the entry COc1cc2oc(-c3ccc(O)cc3)c(OC3OC(C)C(O)C(O)C3O)c(=O)c2c(O)c1OC (configuration not stated) , state whether its growth inhibition is greater than or equal to 10%.
[out] 0.0

---

Please respond with reported growth inhibition for every item in the list.
Test: NCI Yeast Anticancer Drug Screen. Data for the sgs1 mgt1 strain (AID 161);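 note: 0% = growth of cultures given vehicle only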
Settings: S. cerevisiae sgs1 mgt1 strain, at 50.0 µM, hits give high values
This is part of a sample that, as a whole, favours compounds with a hit. Of some 79,000 tested, about 15% had one in any assay.
The answer is to be given in %; state only the numeric part.

[in] Entry CCOC(=O)N1CC2CCc3c(ccc4ccccc34)N2C1=O (stereo unspecified) : reported growth inhibition = ?
[out] -4.5

[in] Entry Cn1c(=O)oc2cc(C(=O)CN3CCN(Cc4ccc5c(c4)OCO5)CC3)c(Cl)cc21 : reported growth inhibition = ?
[out] 61.8

[in] Entry CCCCc1c2cnccc2c(CCCC)c2c1[nH]c1ccccc12 : reported growth inhibition = ?
[out] 91.8

[in] Entry COc1ccc(/C=C2\N=C(c3ccc(N)cc3)OC2=O)cc1OC : reported growth inhibition = ?
[out] 13.2

[in] Entry O=C(CO)CC(=O)C(=O)Nc1ccccc1 : reported growth inhibition = ?
[out] 1.5

[in] Entry Cn1c(=O)c2[nH]c([N+](=O)[O-])nc2n(C)c1=O : reported growth inhibition = ?
[out] -0.3

[in] Entry CC(=O)Nc1ccc2c(=O)cc[nH]c2n1 : reported growth inhibition = ?
[out] 2.4

[in] Entry CC1=C/C(=N\NC(N)=S)C(C(O)(C(F)(F)F)C(F)(F)F)C(C)(C)C1 (stereo unspecified) : reported growth inhibition = ?
[out] 47

[in] Entry CC1(CO)CSC(Nc2ccc(Cl)c(Cl)c2)=N1 (stereo unspecified) : reported growth inhibition = ?
[out] 37.8

[in] Entry COc1ccc2c(c1O)-c1cccc3c1C(C2)N(CCOCCCl)CC3 (stereo unspecified) : reported growth inhibition = ?
[out] -19.9

[in] Entry CC1(C)CC([NH-])(C(=O)O)CC(C)(C)N1O.CC1(C)CC([NH-])(C(=O)O)CC(C)(C)N1O.[Pt+2] : reported growth inhibition = ?
[out] -6.5

---

Test: NCI Yeast Anticancer Drug Screen. Data for the rad50 strain (AID 155);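 note: 0% = growth of vehicle-only cultures of the same strain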
Conditions: S. cerevisiae rad50 strain growth inhibition; at 50.0 µM; hits give high values
The panel holds about 79,000 compounds, 15% with a hit somewhere; the sample as a whole holds those more often. The source made the active and inactive calls. Cut-off read from the data, not from the text of the source: active = growth inhibition above about 70%; inactive = the rest.
Please respond with reported growth inhibition for every item in the list.

[in] Entry NNc1cc(=O)[nH]c(N)n1 : reported growth inhibition = ?
[out] -17.6% (inactive)

[in] Entry CN1c2ccccc2C2CC(CC#N)CC(=O)C21 (stereo unspecified) : reported growth inhibition = ?
[out] 18.9% (inactive)

[in] Entry CC(=O)N1N=C(c2ccc(OCC(O)CN3CCN(CC(O)COc4ccc(C5=NN(C(C)=O)C(c6ccccc6)C5)cc4)CC3)cc2)CC1c1ccccc1 (stereo unspecified) : reported growth inhibition = ?
[out] -30.6% (inactive)

[in] Entry CC(C)NC(=O)OCc1c(COC(=O)NC(C)C)c(S(=O)(=O)c2ccccc2)n2c1CCC2 : reported growth inhibition = ?
[out] 11.5% (inactive)

[in] Entry O=c1[nH]cc(F)c(=O)n1-c1ccco1 : reported growth inhibition = ?
[out] 42.6% (inactive)

[in] Entry CN(/N=C/C=N/N(C)C1=NCCN1)C1=NCCN1 : reported growth inhibition = ?
[out] 4.35% (inactive)

---

Assay: NCI Yeast Anticancer Drug Screen. Data for the cln2 rad14 strain (AID 165);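 note: 0% = growth equal to vehicle treated cultures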
Settings: S. cerevisiae cln2 rad14 strain, at 50.0 µM, hits give high values
About 79,000 compounds went through this panel and 15% of them were active in at least one assay; those are over-represented in the sample as a whole.
Please respond with reported growth inhibition for every item in the list.
The answer is to be given in %; state only the numeric part.

[in] Entry CC(=O)OCC1COC(C2CC=CCC2C)O1 (stereo not drawn) : reported growth inhibition = ?
[out] 4.05

[in] Entry COc1cc(C2c3c(oc4ccccc4c3=O)Oc3oc4ccccc4c(=O)c32)cc(OC)c1O : reported growth inhibition = ?
[out] 31.9

[in] Entry c1ccc(CSc2cnnc3ccccc23)cc1 : reported growth inhibition = ?
[out] -11.1

[in] Entry CCCCN(CCCC)CCC(O)c1ccc(OC)c2ccccc12 (stereo not drawn) : reported growth inhibition = ?
[out] 57.4

[in] Entry CN(C)c1ccc2c(c1)Cc1cc(NC(=O)CCC(=O)O)ccc1-2 : reported growth inhibition = ?
[out] -1.6

[in] Entry C(=N/Nc1ccccn1)/NN/C=N/Nc1ccccn1 : reported growth inhibition = ?
[out] 7.1

[in] Entry C[C@]12CC[C@@H]3c4ccc(OCCCO)c([N+](=O)[O-])c4CC[C@H]3[C@@H]1CCC2=O : reported growth inhibition = ?
[out] 12.4

[in] Entry COc1cc([N+](=O)[O-])c(C)cc1Br : reported growth inhibition = ?
[out] -18.3

[in] Entry COc1cc(C(C#N)NNc2nc(C)cc(=O)[nH]2)cc(OC)c1OC (stereo not drawn) : reported growth inhibition = ?
[out] -5.35

[in] Entry C=CCc1cc(OC)c2c(c1)C(OC)CC(c1ccc(OC)c(OC)c1)O2 (stereo not drawn) : reported growth inhibition = ?
[out] 12.6

[in] Entry O=c1[nH]c(=O)n(CCCCOc2ccccc2)cc1-c1ccccc1 : reported growth inhibition = ?
[out] 0.7

[in] Entry CC(C(=O)O)/C(=C\c1ccccc1)C(=O)O (stereo not drawn) : reported growth inhibition = ?
[out] -17.5

[in] Entry CN(C)CCSc1n[nH]c(=O)[nH]c1=O : reported growth inhibition = ?
[out] -23.4

[in] Entry C1=C(c2ccccc2)N(c2ccccc2)N=C(c2ccccc2)C1 : reported growth inhibition = ?
[out] -10.4

[in] Entry CSCCC(NC(=O)c1cnc2ccccc2n1)C(=O)O (stereo not drawn) : reported growth inhibition = ?
[out] 5.55

[in] Entry Cc1cccc(C(=O)c2ccccc2)c1C(=O)O : reported growth inhibition = ?
[out] 2.45

[in] Entry CC1(C)CCCC2(C)C(C(=O)O)C3CCC45OC3(CC12)OC(=O)C4C1(C)CCCC(C)(C)C1CC5=O (stereo not drawn) : reported growth inhibition = ?
[out] 2.85

[in] Entry COc1cc([N+](=O)[O-])c2ncccc2c1OC : reported growth inhibition = ?
[out] -20.2

[in] Entry CN(C)CCNC(=O)c1ccc2nc3c(nc2c1)C(=O)c1ccccc1-3 : reported growth inhibition = ?
[out] 36.8

[in] Entry O=C1OC(c2cccc(Cl)c2)=N/C1=C\c1cc(Br)ccc1O : reported growth inhibition = ?
[out] 5.2

[in] Entry CC(=C\C=N\N(C)c1ccccc1)/C=C1\Cc2ccccc2C1=O : reported growth inhibition = ?
[out] 14

[in] Entry Cc1ccc(S/C=C/C(=O)Nc2ccccc2)cc1 : reported growth inhibition = ?
[out] 43.1

[in] Entry CCc1nnc(N)o1 : reported growth inhibition = ?
[out] -2.5

[in] Entry CCCCS(=O)(=O)C1CCCC1=O (stereo not drawn) : reported growth inhibition = ?
[out] -7.1

[in] Entry O=C(Nc1ccc([N+](=O)[O-])cc1)N(c1ccccc1)c1cc(N2CCOCC2)ccn1 : reported growth inhibition = ?
[out] 13.8

[in] Entry CCCCCC(CCCCC)=C(C#N)C(=O)OCC : reported growth inhibition = ?
[out] -19.4

[in] Entry O=C(O)C1CCN(C(=O)Cc2ccccc2)CC1 : reported growth inhibition = ?
[out] -5.6

[in] Entry S=C1NC=CC(S)N1 (stereo not drawn) : reported growth inhibition = ?
[out] 10.3

[in] Entry CC1(C)CCCC/C1=N\O : reported growth inhibition = ?
[out] 24.4

[in] Entry N#C/C(=C/N1C(=O)CC(=O)NC1=S)c1cccc(Cl)c1 : reported growth inhibition = ?
[out] 18.2

[in] Entry CCCCCCC(CC)C(N)=O (stereo not drawn) : reported growth inhibition = ?
[out] -7.8

[in] Entry NC1=NN(c2ccccc2)C(=O)C1/C(=N\NC(=O)c1cc2ccccc2cc1O)C(=O)Nc1cccc(C(F)(F)F)c1 (stereo not drawn) : reported growth inhibition = ?
[out] 19.9

[in] Entry CCOC(=O)c1[nH]c(-c2ccc(OC)cc2)c(C(=O)OCC)c1-c1ccccc1 : reported growth inhibition = ?
[out] -0.2

[in] Entry NC(N)=NC(N)=Nc1ccc2ccccc2c1 : reported growth inhibition = ?
[out] 20.3

[in] Entry CCOc1ccccc1NC(=O)CC1SC(=Nc2ccc([N+](=O)[O-])cc2)NC1=O (stereo not drawn) : reported growth inhibition = ?
[out] 10.9

[in] Entry FC(F)C(F)(F)N1c2ccccc2Sc2ccccc21 : reported growth inhibition = ?
[out] 6.9

[in] Entry O=C(O)[C@@H]1OCCOCCO[C@@H](C(=O)O)[C@H](C(=O)O)OCCOCCO[C@H]1C(=O)O : reported growth inhibition = ?
[out] 14.4

[in] Entry COc1ccc(C(C)c2cc3c(cc2OC)OCO3)cc1OC (stereo not drawn) : reported growth inhibition = ?
[out] 5.2

[in] Entry S=C(NCc1cccnc1)Nc1ccc(Cl)c(Cl)c1 : reported growth inhibition = ?
[out] 5.85

[in] Entry N#Cc1c[nH]c2cccc([N+](=O)[O-])c12 (tested in a mixture with another compound) : reported growth inhibition = ?
[out] 17.9

[in] Entry NC[C@H]1Nc2ccccc2[C@@H](O)C1O (stereo partly drawn) : reported growth inhibition = ?
[out] 8.9

[in] Entry CCSc1[nH]c2nc[nH]c(=O)c2c1C#N : reported growth inhibition = ?
[out] -17.8

[in] Entry Cc1ccc(C(=O)c2c[nH]c(=O)[nH]c2=O)cc1 : reported growth inhibition = ?
[out] -6.5

[in] Entry O=C1C=C(N2CCCC2)c2ccccc21 : reported growth inhibition = ?
[out] -18.9

[in] Entry O=C(O)C1CCC(=O)N1Cc1csc(-c2ccccc2)n1 (stereo not drawn) : reported growth inhibition = ?
[out] -19.6

[in] Entry O=NN(CCCl)C(=O)N[C@H]1CCC[C@@H](O)C1 : reported growth inhibition = ?
[out] -42.9

[in] Entry CCN(CC)CCOC(=O)c1c(C)c(C)cc(C)c1C : reported growth inhibition = ?
[out] -29.5

[in] Entry O=c1[nH]cc(C2OCC(O)C(O)C2O)c(=O)[nH]1 (stereo not drawn) : reported growth inhibition = ?
[out] 1.95
